EXPERIMENT DESCRIPTION: compound binding in COS7 lysate, probe aLAP1, primary screen, cell lysate, small-molecule microarray (AID 1124);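 further: lysate comes from COS7 cells expressing LAP1 and is applied at 0.3 µg/mL; score merges spot fluorescence near 667 nm with signal-to-noise over triplicate slides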
TEST PARAMETERS: probe aLAP1, fluorescence, higher = more signal
Criterion: composite z-score meeting or surpassing 0.02. Met: 1 (yes). Not met: 0 (no).

[[record]]
compound = "C=CCN1C(=O)[C@]2(O[C@H](CCO)[C@@H]([Si](C)(C)c3ccc(OC)cc3)[C@@H]2C)c2cc(NC(=O)c3ccc(OC)cc3)ccc21"
group = "1 (yes)"

[[record]]
compound = "O=C(NCCN1CCOCC1)[C@@H]1c2ccccc2C(=O)N(Cc2ccccc2)[C@H]1c1ccc(CO)cc1"
group = "0 (no)"

[[record]]
compound = "C[C@]1(C(=O)NCCN2CCOCC2)c2ccccc2C(=O)N(Cc2cc(F)cc(C(F)(F)F)c2)[C@H]1c1ccc(CO)cc1"
group = "1 (yes)"

[[record]]
compound = "CN(C)C(=O)[C@@]1(Cc2ccccc2N=[N+]=[N-])N=C(c2ccc(OCCCO)cc2)O[C@H]1c1ccccc1"
group = "1 (yes)"

[[record]]
compound = "O=C1O[C@H](c2ccccc2)[C@H](c2ccccc2)N2[C@H]1[C@@H](C(=O)O)[C@]1(C(=O)Nc3ccc(C#CC4(O)CCCCCC4)cc31)[C@H]2c1ccc(O)cc1"
group = "0 (no)"

[[record]]
compound = "O=C1NC(=O)C2C1C=CC(C(O)c1ccccn1)N2Nc1ccc(Cl)cc1Cl (stereo unspecified)"
group = "1 (yes)"

[[record]]
compound = "C=C(C(=O)CC[C@@H](OC(=O)c1ccccc1-c1ccccc1C(=O)O)c1ccccc1OCCO)C(C)C"
group = "1 (yes)"

[[record]]
compound = "CC(C)=CCCC(C)=CC(O)C1C=CC2C(=O)N(c3ccccc3)C(=O)C2N1Nc1ccccc1F (stereo unspecified)"
group = "1 (yes)"

[[record]]
compound = "CN1C(=O)C2C(C1=O)C1C=C(CCCO)C2C(C2CC2)N1Cc1cc2c(cc1Br)OCO2 (stereo unspecified)"
group = "1 (yes)"

[[record]]
compound = "CC(C)C(=C=CC[C@H](O)c1cccc(OCCO)c1)CCO"
group = "0 (no)"

[[record]]
compound = "COCCOC(=O)N1C(=O)[C@@]2(c3cc(C#CCC(C(=O)OC)C(=O)OC)ccc31)[C@H](c1ccc(OCCO)cc1)N1[C@H](c3ccccc3)[C@H](c3ccccc3)OC(=O)[C@H]1[C@@H]2C(=O)Nc1nc2ccccc2s1"
group = "0 (no)"

[[record]]
compound = "CC(C)(C)OC(=O)CC[C@]1(C(=O)N2CCCCC2)COC(c2ccc(OCCCO)cc2)=N1"
group = "1 (yes)"

[[record]]
compound = "CCc1cccc(NC(=O)O[C@H]2[C@H](OC(=O)Nc3ccccc3)[C@H](OC(=O)Nc3ccccc3)[C@@H](OC)O[C@@H]2CO)c1"
group = "1 (yes)"

[[record]]
compound = "O=C1O[C@H](c2ccccc2)[C@H](c2ccccc2)N2[C@H]1[C@@H](C(=O)Nc1nc3ccccc3s1)[C@]1(C(=O)Nc3ccc(C#CC4=CCCCC4)cc31)[C@H]2c1ccc(O)cc1"
group = "0 (no)"

[[record]]
compound = "CC(C)[Si]1(C(C)C)OCc2cc(-c3ccc(-c4ccc(Cl)c(Cl)c4)o3)nc(CCc3ccccc3)c21"
group = "1 (yes)"

[[record]]
compound = "C=CCC(OC(C)=O)[C@@H]1[C@@H](N(Cc2ccc(-c3cccc(C(F)(F)F)c3)o2)C(=O)Cc2ccc(OC)cc2)c2cc(OCCCO)ccc2N1C(=O)Cc1ccc2ccccc2c1 (stereo partly specified)"
group = "0 (no)"


---

Reported composite z-score is given for each of the following compounds.
Test system: Human papillomavirus type 1a protein E7 (residues 44-93)
EXPERIMENT DESCRIPTION: HPV1a E7 fragment binders on microarrays, primary screen, biochemical, small-molecule microarray, residues 44-93, 635 nm fluorescence (AID 1108);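 further: E7 fragment applied at 1 µg/mL in TBST for 1 h at 4 C; score combines spot fluorescence with its signal to noise ratio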
TEST PARAMETERS: small-molecule microarray binding, fluorescence 635 nm; higher = more signal
OBSERVED PROPERTY: composite z-score

[[record]]
compound = "O=c1cccc(-c2ccc(F)cc2)o1"
observed_property = "composite z-score"
numeric_value = -0.399

[[record]]
compound = "CC(C)CNC(=O)[C@@]1(c2ccc([N+](=O)[O-])cc2)CC(=O)N(C2CCCCC2)[C@@H]1c1ccc(CO)cc1"
observed_property = "composite z-score"
numeric_value = 0.292

[[record]]
compound = "[N-]=[N+]=Nc1ccccc1C[C@]1(C(=O)O)N=C(c2ccc(OCCCO)cc2)O[C@H]1c1ccccc1"
observed_property = "composite z-score"
numeric_value = 1.36

[[record]]
compound = "COC(=O)C1=CC(CCCO)=CC(C)N(Cc2cccc(OC(F)(F)F)c2)C=C1C(=O)OC (stereo unspecified)"
observed_property = "composite z-score"
numeric_value = 1.35

[[record]]
compound = "CN1C(=O)C2C(C1=O)C1C=C(CCCO)C2C(c2cccs2)N1Cc1cc2c(cc1Br)OCO2 (stereo unspecified)"
observed_property = "composite z-score"
numeric_value = 1.44

[[record]]
compound = "CC1(C)C(=O)C(c2ccccc2)=C2CN3C(=O)N(CCc4ccccc4)C(=O)C3(Cc3ccc(F)cc3)C=C21 (stereo unspecified)"
observed_property = "composite z-score"
numeric_value = 0.754

[[record]]
compound = "O=c1cccc(-c2ccco2)o1"
observed_property = "composite z-score"
numeric_value = 0.582

[[record]]
compound = "CO[C@H]1O[C@H](CO)[C@@H](OC(=O)CCc2ccccc2)[C@H](OC(=O)c2cc3ccccc3[nH]2)[C@H]1OC(=O)c1cc2ccccc2[nH]1"
observed_property = "composite z-score"
numeric_value = 1.34

[[record]]
compound = "C=CCC(OC(C)=O)[C@@H]1[C@@H](N(Cc2cccc3ccccc23)C(=O)c2cccc3ccccc23)c2cc(OCCCO)ccc2N1C(=O)c1ccc2ccccc2c1 (stereo partly specified)"
observed_property = "composite z-score"
numeric_value = 0.475

[[record]]
compound = "COC(=O)[C@@]1(Cc2ccc(F)cc2)[C@H]2c3cc(C(=O)N4CCCC4)n(C)c3C[C@H]2CN1C(=O)c1ccccc1"
observed_property = "composite z-score"
numeric_value = -0.919

[[record]]
compound = "C=C(/C(=C/C[C@@H](OC(=O)c1ccncc1)c1cccc(OCCO)c1)c1cnc2ccccc2c1)C(C)C"
observed_property = "composite z-score"
numeric_value = 1.08


---

EXPERIMENT DESCRIPTION: binders of probe aHhip on microarray, primary screen, stem cell growth factor project, biochemical, small-molecule microarray, fluorescence 635/667 (AID 1087);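 further: score merges spot fluorescence at 667nm with spot signal to noise ratio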
TEST PARAMETERS: higher = more signal
Reported composite z-score is given for each of the following compounds.
OBSERVED PROPERTY: composite z-score

[[record]]
chemical_structure = "C[C@@]12COC[C@]13C=C(Br)[C@H](C2)[C@@]1(CO1)C3=O"
observed_property = "composite z-score"
numeric_value = -0.134

[[record]]
chemical_structure = "C=C(COC)C(=O)CC[C@H](OC(=O)c1cccnc1)c1ccc(CO)o1"
observed_property = "composite z-score"
numeric_value = -0.0994

[[record]]
chemical_structure = "O=C(O)[C@@H]1C[C@@H]2C(=O)N3CCC[C@H]3C(=O)N2[C@@H]1c1cccc(OCCO)c1"
observed_property = "composite z-score"
numeric_value = 1.1

[[record]]
chemical_structure = "C=C(/C(=C/C[C@@H](OC(=O)c1ccncc1)c1cccc(OCCO)c1)c1cnc2ccccc2c1)C(C)C"
observed_property = "composite z-score"
numeric_value = -0.116

[[record]]
chemical_structure = "COC(=O)[C@@]1(Cc2ccccc2CN=[N+]=[N-])N=C(c2ccc(OCCCO)cc2)O[C@H]1c1ccccc1CN=[N+]=[N-]"
observed_property = "composite z-score"
numeric_value = -0.226

[[record]]
chemical_structure = "COC(=O)[C@@]1(Cc2ccc(F)cc2)[C@H]2c3cc(C(=O)N4CCCC4)n(CC4CC4)c3C[C@H]2CN1C(=O)c1ccccc1"
observed_property = "composite z-score"
numeric_value = 0.0274


---

EXPERIMENT DESCRIPTION: basal S. cerevisiae growth modulation, no modifier, primary screen, OD600, strain BY4716, 24 h, basal condition (AID 1173)
TEST PARAMETERS: OD600, 24 h, called active from +8 up or from −8 down
Activity calls are given as the source filed them.
Outcome codes: true = active, false = inactive

[[record]]
compound = "O=C1C2C=CC(C(O)c3cc(C(F)(F)F)cc(C(F)(F)F)c3)N(Nc3ccccc3F)C2C(=O)N1c1ccccc1 (configuration not stated)"
group = "false"

[[record]]
compound = "C#C[C@@H](CC)O[Si](C#CCCCC#N)(C(C)C)C(C)C"
group = "true"

[[record]]
compound = "CC(CO)N1C(=O)[C@@H]2[C@H]3C(=O)OCC=C[C@H]3OC23C=CCN(c2ccc(Cl)cc2)C(=O)[C@@H]13 (some centres not stated)"
group = "false"

[[record]]
compound = "CCOC(=O)C[C@H]1[C@H](OC(=O)c2cc3ccccc3oc2=O)[C@@H](NC(=O)c2ccc3ccccc3c2)c2cc(OCCCO)ccc2N1C(=O)Cc1ccc(OC)cc1"
group = "false"

[[record]]
compound = "C=CCC(OC(C)=O)[C@@H]1[C@@H](N(Cc2ccc(-c3ccccc3)cc2)C(=O)Cc2ccc(F)cc2)c2cc(OCCCO)ccc2N1C(=O)Cc1ccc2ccccc2c1 (some centres not stated)"
group = "false"

[[record]]
compound = "COc1ccc(C(=O)Nc2cccc(CN3C(=O)[C@@]4(O[C@@H](CC(=O)N(CCO)Cc5ccccc5)[C@H]([Si](C)(C)c5ccc(OC)cc5)[C@H]4C)c4ccccc43)c2)cc1"
group = "false"

[[record]]
compound = "COc1cccc(/C=C(\\C#N)C(=O)Nc2c(C)n(C)n(-c3ccccc3)c2=O)c1"
group = "false"

[[record]]
compound = "C=C[C@@H](C)[C@H](O)c1ccc(OCCO)cc1"
group = "false"

[[record]]
compound = "COC(=O)C1=CC(CCCO)=CC(C)N(Cc2cccc(OC(F)(F)F)c2)C=C1C(=O)OC (configuration not stated)"
group = "false"

[[record]]
compound = "CCOC(=O)C[C@H]1[C@H](OC(=O)c2ccccc2-c2ccccc2)[C@@H](NC(=O)c2ccccc2)c2cc(OCCCO)ccc2N1C(=O)c1ccccc1"
group = "false"

[[record]]
compound = "CN1C(=O)C2C=CC(C(O)c3cc(C(F)(F)F)cc(C(F)(F)F)c3)N(NC(=O)OC(C)(C)C)C2C1=O (configuration not stated)"
group = "false"

[[record]]
compound = "COCCCNC(=O)[C@@]1(c2ccc([N+](=O)[O-])cc2)CC(=O)N(CC23CC4CC(CC(C4)C2)C3)[C@@H]1c1ccc(CO)cc1I"
group = "false"

